- experimental system: steroid sulfatase (Homo sapiens)
- Sequence (P08842 22-583): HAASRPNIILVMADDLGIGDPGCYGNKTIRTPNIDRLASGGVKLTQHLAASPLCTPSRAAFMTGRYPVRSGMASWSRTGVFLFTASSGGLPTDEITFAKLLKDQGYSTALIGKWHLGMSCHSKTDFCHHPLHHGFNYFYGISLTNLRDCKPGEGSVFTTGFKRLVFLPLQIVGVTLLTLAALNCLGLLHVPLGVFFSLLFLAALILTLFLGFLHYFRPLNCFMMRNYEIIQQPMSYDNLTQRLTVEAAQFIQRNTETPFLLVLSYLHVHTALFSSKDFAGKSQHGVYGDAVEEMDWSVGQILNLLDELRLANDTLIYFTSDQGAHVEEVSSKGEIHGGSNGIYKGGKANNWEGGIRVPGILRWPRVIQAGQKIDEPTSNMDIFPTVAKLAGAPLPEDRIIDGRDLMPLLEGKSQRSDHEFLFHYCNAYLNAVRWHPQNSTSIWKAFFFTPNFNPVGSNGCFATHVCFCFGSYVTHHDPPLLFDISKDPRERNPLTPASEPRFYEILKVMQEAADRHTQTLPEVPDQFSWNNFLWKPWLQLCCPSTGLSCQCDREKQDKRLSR
- assay protocol: Assay of human steroid sulfatase (4-methylumbelliferyl sulfate cleavage, fluorescence)
- Assay type: biochemical
- Set-up: Human placenta is obtained freshly after delivery and stripped of membranes and connective tissues; from tissue; host or cells: human placenta (microsomes, Triton X-100 extract, chromatographically purified)
- test conditions: purified human placental steroid sulfatase; 4-methylumbelliferyl sulfate substrate; 37° C., 1 hour
pIC50: −log10 of the molar value.
measured parameter: pIC50

Identify measured pIC50 corresponding to CC12CCC3c4ccc(OS(N)(=O)=O)cc4CCC3C1CCC2=O (stereo not shown) [estrone sulfamate] ~7.22
